# System: P388 (murine)
# run-description: Cellular activity, P388
# Assay type: cell-based
# condition-context: Mus musculus, P388
pIC50: −log10 of the molar value.
measured-metric: pIC50

compound: Cc1ccc(C(=O)N(CCCN)[C@@H](c2nc3cc(Cl)ccc3c(=O)n2Cc2ccccc2)C(C)C)cc1 [ispinesib, reference compound]
experimental-result: 7.71

---

# run-description: Tolerability (MTD) of Compound A and bortezomib in nude mice
# Format: in vivo
# condition-context: female, athymic nu/nu (nude), mouse, in vivo, ip, read-out: single agent MTD (q4d×3)

molecule: CC(C)C[C@H](NC(=O)[C@H](Cc1ccccc1)NC(=O)c1cnccn1)B(O)O
MTD: ~1.5 mg/kg

---

# Test system: P388 (murine)
# run-description: Cellular activity, P388
# Type: cell-based

molecule: Cc1ccc(C(=O)N(CCCN)[C@@H](c2oc3cc(Cl)ccc3c(=O)c2Cc2ccccc2)C(C)C)cc1 [Compound A]
IC50 [nM]: 14.4

---

# Tested on: HT29
# run-description: Cellular activity, HT29
# Assay type: cell-based
pIC50: −log10 of the molar value.
measured-metric: pIC50

molecule: Cc1ccc(C(=O)N(CCCN)[C@@H](c2oc3cc(Cl)ccc3c(=O)c2Cc2ccccc2)C(C)C)cc1
subject-of-test: HT29
experimental-result: 8.72

---

# System: MV522
# run-description: Cellular activity, MV522
# Type: cell-based

molecule: Cc1ccc(C(=O)N(CCCN)[C@@H](c2oc3cc(Cl)ccc3c(=O)c2Cc2ccccc2)C(C)C)cc1
IC50, nM: 1.7

---

# Tested on: Colo205
# run-description: Cellular activity, Colo205
# Format: cell-based
pIC50: −log10 of the molar value.

molecule: Cc1ccc(C(=O)N(CCCN)[C@@H](c2oc3cc(Cl)ccc3c(=O)c2Cc2ccccc2)C(C)C)cc1
subject-of-test: Colo205
pIC50: 10.15

---

Recorded measurements of Ki, one per entry
# subject-of-test: Other kinesins
# run-description: Kinesin affinity, other kinesins
# Assay type: binding
measured-metric: Ki

molecule: Cc1ccc(C(=O)N(CCCN)[C@@H](c2oc3cc(Cl)ccc3c(=O)c2Cc2ccccc2)C(C)C)cc1 [Compound A]
experimental-result: > 70000 nM
--
molecule: Cc1ccc(C(=O)N(CCCN)[C@@H](c2nc3cc(Cl)ccc3c(=O)n2Cc2ccccc2)C(C)C)cc1 [ispinesib, reference compound]
experimental-result: > 70000 nM
